// data source = the supplement of paper PMC10065799

Below is a list of entries, each paired with its recorded phosphorylation enrichment value.
system: c-Src; experiment: phosphorylation enrichment, bacterial display (enrichment ratio); higher = better substrate or ligand; peptides without Tyr show the background;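 note: 11-residue human phosphosite peptides and single-mutation variants displayed on the E. coli surface, counted by deep sequencing, each peptide's frequency after selection divided by its frequency in the unselected input library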;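 note: frequency after pTyr selection over input frequency; kinase dosed for 20-30% of maximal phosphorylation in three min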
# print the numeric value only

Some sequences with known phosphorylation enrichment results, for comparison:
> print(dat)
                  sequence.chain  data.value
1         KNDSNYVVKGN [KIT_Y823]       0.346
2   GRERPYGGGGG [FUS_Y526_R521G]       0.854
3  SSPVLYLSPET [TJP1_Y931_P930L]       0.469

PRPAGYPSMVS [CACNA1C_Y1832_T1835M] has a reported phosphorylation enrichment of 0.416

QHNPEYVQQAT [LRRC7_Y1058_S1063T] has a reported phosphorylation enrichment of 0.284

MKGDYYRSLAE [YWHAG_Y131_Y133S] has a reported phosphorylation enrichment of 0.428

ETMNKYDLSGR [MYEF2_Y164] has a reported phosphorylation enrichment of 0.398

CTTIHYTYMCN [TP53_Y234_N235T] has a reported phosphorylation enrichment of 0.549

RGDVIYKGFED [NFU1_Y194_G189R] has a reported phosphorylation enrichment of 2.03

FSCLPCGRLAY [SLC52A2_Y305_Y305C] has a reported phosphorylation enrichment of 0.45

RRFLFYFSFLL [PTEN_Y177_V175L_YF] has a reported phosphorylation enrichment of 0.683

KFADVYVGICL [B3GALNT1_Y269_E266A] has a reported phosphorylation enrichment of 1.12

YVFSFYHAFSG [ACTN4_Y265_S262F] has a reported phosphorylation enrichment of 0.964
